Values compiled from paper PMC11881906.

- protocol.description: Plasma pharmacokinetic study
- Assay type: in vivo, CD-1 mice
- conditions.used: male, CD-1, mouse, plasma, ip, 20 mg/kg, ip 20 mg/kg
property.measured: Cmax (ng/mL)
I only need the number, in ng/mL, no unit after it.

Ask | Which Cmax is reported for this compound? CC(C)=CCOc1cc(OCCCNC(=N)N)cc2oc3cc(OCCCNC(=N)N)ccc3c(=O)c12
Reply | 18400

====

- protocol.description: Plasma pharmacokinetic study
- Assay type: in vivo, CD-1 mice
- conditions.used: male, CD-1, mouse, plasma, iv, 5 mg/kg, IV 5 mg/kg
property.measured: clearance (mL/min/kg)
Entry rule: numbers only, all in mL/min/kg.

Ask | Recorded clearance of CC(C)=CCOc1cc(OCCCNC(=N)N)cc2oc3cc(OCCCNC(=N)N)ccc3c(=O)c12 , please.
Reply | 9.68
